tested on: Human immunodeficiency virus 1; test: Antiviral activity against HIV-1 infected in human P4R5 cells assessed as reduction in viral replication preincubated for 24 hrs followed by viral infection and measured after 48 hrs by MAGI assay; format: functional, organism-based
Lab note - cut at 7 µM for EC50: label 1 if strictly below, label 0 if not.

Please review the following examples before continuing.
>  <COMPOUND>
O=C(c1ccc(-c2ccc(Cl)c(F)c2)cc1)c1cc(=O)n(O)c(=O)[nH]1

>  <GROUP_LABEL>
label 0

$$$$
>  <COMPOUND>
CCOCn1c(C(=O)c2ccc(-c3ccccc3)cc2)cc(=O)n(O)c1=O

>  <GROUP_LABEL>
label 0

$$$$

Bench note: check whether Cc1ccc(C(=O)c2cc(=O)n(O)c(=O)[nH]2)cc1 shows EC50 below 7 µM
label 0

###

target: Human immunodeficiency virus type 1 reverse transcriptase (Human immunodeficiency virus 1, UniProt Q72547); test: Inhibition of HIV1 reverse transcriptase RNase H expressed in Escherichia coli JM109 using RNA/DNA duplex substrate HTS-1
Criterion: IC50 strictly less than 30 nM. Met: Criterion met. Not met: Criterion not met.

>  <SMILES_DATA>
Cc1ccc(-c2ccc(C(=O)c3cc(=O)n(O)c(=O)[nH]3)cc2)cc1

>  <GROUP_LABEL>
Criterion met

$$$$
>  <SMILES_DATA>
COC(=O)c1ccc(C(=O)c2cc(=O)n(O)c(=O)[nH]2)cc1

>  <GROUP_LABEL>
Criterion not met

$$$$
>  <SMILES_DATA>
COC(=O)c1ccc(-c2ccc(C(=O)c3cc(=O)n(O)c(=O)[nH]3)cc2)cc1

>  <GROUP_LABEL>
Criterion met

$$$$

Determine whether this molecule shows IC50 lower than 30 nM (ties excluded): O=C(c1ccc(-c2ccc(Cl)c(F)c2)cc1)c1cc(=O)n(O)c(=O)[nH]1
Criterion met

Try the molecule O=C(c1ccc(-c2ccc(F)cc2)cc1)c1cc(=O)n(O)c(=O)[nH]1
Criterion met

Input Cc1cc(C)cc(-c2ccc(C(=O)c3cc(=O)n(O)c(=O)[nH]3)cc2)c1
Criterion not met

Now the molecule O=C(c1ccc(C(F)(F)F)cc1)c1cc(=O)n(O)c(=O)[nH]1
Criterion not met

Now this one: COc1ccc(-c2ccc(C(=O)c3cc(=O)n(O)c(=O)[nH]3)cc2)cc1OC
Criterion not met

And CCOCn1c(C(=O)c2cccc(-c3ccccc3)c2)cc(=O)n(O)c1=O ?
Criterion not met

Same again, this time with O=C(c1ccc(-c2ccccc2)cc1)c1cc(=O)n(O)c(=O)[nH]1
Criterion met

###

test: Cytotoxicity against human P4R5 cells after 72 hrs by XTT assay; type: cell-based
Entries and their measured CC50 follow.

# annotated cases, reported CC50 shown
>  <COMPOUND>
O=C(c1cccc(-c2ccccc2)c1)c1cc(=O)n(O)c(=O)[nH]1

>  <CC50>
> 100 µM

$$$$
>  <COMPOUND>
Cc1cc(C)cc(-c2ccc(C(=O)c3cc(=O)n(O)c(=O)[nH]3)cc2)c1

>  <CC50>
> 100 µM

$$$$
>  <COMPOUND>
COc1ccc(-c2ccc(C(=O)c3cc(=O)n(O)c(=O)[nH]3)cc2)cc1OC

>  <CC50>
8.4 µM

$$$$

Shifting focus to the compound that follows.
Which value of CC50 has been reported for CCOCn1c(C(C#N)c2ccc(-c3ccccc3)cc2)cc(=O)n(O)c1=O (stereo not given) in the records?
> 100 µM

###

test system: Human immunodeficiency virus 1; assay: Antiviral activity against HIV-1 infected in human P4R5 cells assessed as reduction in viral replication preincubated for 24 hrs followed by viral infection and measured after 48 hrs by MAGI assay; assay type: functional, organism-based
REPORTED_ENDPOINT: EC50 (µM)
Value expressed in µM; do not type the unit.

>  <SMILES_DATA>
O=C(c1ccc(-c2ccccc2)cc1)c1cc(=O)n(O)c(=O)[nH]1

>  <NUMERIC_READOUT>
15

$$$$
>  <SMILES_DATA>
COc1ccc(-c2ccc(C(=O)c3cc(=O)n(O)c(=O)[nH]3)cc2)cc1OC

>  <NUMERIC_READOUT>
6.7

$$$$
>  <SMILES_DATA>
O=C(c1ccc(-c2ccc(C(F)(F)F)cc2)cc1)c1cc(=O)n(O)c(=O)[nH]1

>  <NUMERIC_READOUT>
5.3

$$$$

For the next question, use this compound.
Could you tell me which EC50 is on file for CCOCn1c(C(=O)c2cccc(-c3ccccc3)c2)cc(=O)n(O)c1=O ?
12

###

experiment: Cytotoxicity against human P4R5 cells after 72 hrs by XTT assay; assay type: cell-based
REPORTED_ENDPOINT: CC50

Take a look at these entries with their results.
>  <COMPOUND>
N#Cc1ccc(-c2ccc(C(=O)c3cc(=O)n(O)c(=O)[nH]3)cc2)cc1

>  <CC50>
> 100 µM

$$$$
>  <COMPOUND>
Cc1cc(C)cc(C(=O)c2cc(=O)n(O)c(=O)[nH]2)c1

>  <CC50>
21 µM

$$$$
>  <COMPOUND>
CCOCn1c(C(=O)c2ccc(-c3ccccc3)cc2)cc(=O)n(O)c1=O

>  <CC50>
> 100 µM

$$$$

Value lookup for CC50; key = COC(=O)c1ccc(-c2ccc(C(=O)c3cc(=O)n(O)c(=O)[nH]3)cc2)cc1
> 100 µM

Also O=C(c1ccc(-c2ccccc2)cc1)c1cc(=O)n(O)c(=O)[nH]1 ?
> 100 µM

And COc1ccc(-c2ccc(C(=O)c3cc(=O)n(O)c(=O)[nH]3)cc2)cc1 ?
> 100 µM

Note, next up: O=C(c1ccc(-c2ccc(C(F)(F)F)cc2)cc1)c1cc(=O)n(O)c(=O)[nH]1
17 µM

###

The compounds listed here are annotated with their CC50.
experiment: Cytotoxicity against human P4R5 cells after 72 hrs by XTT assay; type: cell-based

>  <COMPOUND>
O=C(c1ccc(-c2ccc(Cl)c(F)c2)cc1)c1cc(=O)n(O)c(=O)[nH]1

>  <CC50>
> 100 µM

$$$$
>  <COMPOUND>
Cc1cc(-c2ccc(C(=O)c3cc(=O)n(O)c(=O)[nH]3)cc2)ccc1F

>  <CC50>
> 100 µM

$$$$
>  <COMPOUND>
CCOCn1c(C(C#N)c2cc(C)cc(C)c2)cc(=O)n(O)c1=O (centres undefined)

>  <CC50>
> 100 µM

$$$$
>  <COMPOUND>
O=C(c1ccc(C(F)(F)F)cc1)c1cc(=O)n(O)c(=O)[nH]1

>  <CC50>
> 100 µM

$$$$
>  <COMPOUND>
O=C(c1ccc(F)cc1)c1cc(=O)n(O)c(=O)[nH]1

>  <CC50>
> 100 µM

$$$$
>  <COMPOUND>
Cc1ccc(C(=O)c2cc(=O)n(O)c(=O)[nH]2)cc1

>  <CC50>
48 µM

$$$$

Would you kindly share the measured CC50 for Cc1ccc(-c2ccc(C(=O)c3cc(=O)n(O)c(=O)[nH]3)cc2)cc1 ?
22 µM

Next compound up: COC(=O)c1ccc(C(=O)c2cc(=O)n(O)c(=O)[nH]2)cc1
> 100 µM

Can you handle O=C(c1ccc(-c2ccc(F)cc2)cc1)c1cc(=O)n(O)c(=O)[nH]1 next?
> 100 µM
